- system-tested: estrogen receptor of rat uteri (Rattus norvegicus)
- Construct: The preparation of rat uterus cytosol, as well as the receptor test with the ER-containing cytosol; from tissue; host or cells: rat uterus cytosol
- Sequence (P06211 whole entry): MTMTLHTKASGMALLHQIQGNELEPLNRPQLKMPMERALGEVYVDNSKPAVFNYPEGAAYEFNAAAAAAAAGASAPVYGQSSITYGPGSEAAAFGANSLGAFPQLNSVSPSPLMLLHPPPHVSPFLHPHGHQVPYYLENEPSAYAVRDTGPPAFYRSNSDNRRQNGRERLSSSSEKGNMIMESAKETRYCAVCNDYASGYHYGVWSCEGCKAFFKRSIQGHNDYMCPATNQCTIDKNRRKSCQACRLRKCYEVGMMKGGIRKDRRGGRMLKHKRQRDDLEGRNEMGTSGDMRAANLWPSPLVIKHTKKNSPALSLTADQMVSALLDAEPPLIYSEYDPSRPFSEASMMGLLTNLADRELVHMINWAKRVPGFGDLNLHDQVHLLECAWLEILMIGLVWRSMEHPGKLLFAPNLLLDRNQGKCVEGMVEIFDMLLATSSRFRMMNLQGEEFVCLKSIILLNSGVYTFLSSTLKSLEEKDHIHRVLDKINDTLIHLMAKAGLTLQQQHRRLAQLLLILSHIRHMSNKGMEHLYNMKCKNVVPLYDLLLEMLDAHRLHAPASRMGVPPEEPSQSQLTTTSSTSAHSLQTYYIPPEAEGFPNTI
- assay-explanation: Estrogen receptor binding, rat uterus cytosol, competition with 3H-estradiol
- condition-set: Table 2
quantity-kind: ER Uterus RBA

{"molecule": "CC#C[C@]1(O)CC[C@H]2[C@@H]3CCc4cc(O)ccc4[C@H]3[C@@H](C)C[C@@H]21", "ER Uterus RBA": 20}
{"molecule": "CC#C[C@]1(O)CC[C@H]2[C@@H]3CCc4cc(O)ccc4[C@H]3CC[C@@H]21", "ER Uterus RBA": 0.4}
{"molecule": "C=C1C[C@H]2[C@@H](CC[C@@]2(O)C#CC)[C@@H]2CCc3cc(O)ccc3[C@@H]12", "ER Uterus RBA": 4}

Here is another compound to look at.
Lab note: C[C@H]1C[C@H]2[C@@H](CC[C@]2(C)O)[C@@H]2CCc3cc(O)ccc3[C@H]21 gave ER Uterus RBA of 26
